molecular target: OCLM; assay: pooled miR-30 sensor sort-seq; sequence = guide strand; conditions: shRNA; note: reference of the scale not given here
For each of the sequences below, state its sensor-assay potency score (higher = more potent).
The answer should be written as a number, with no unit following it.

Reported sensor-assay potency score (higher = more potent), sequence `TAATACCACTCTTATAAAGGAT` : ____
-0.68

Quick one: sensor-assay potency score (higher = more potent) for `AAAGAATACCAGGATAGCCATA` ?
-1.76

Dear colleague, I am looking for the recorded sensor-assay potency score (higher = more potent) of the following sequence: `TACTAATGTGTCTGCTAAGGTA`
-0.482

Would you mind telling me what sensor-assay potency score (higher = more potent) value was observed for `AAGAGTATACTAATGTGTCTGC` ?
0.0499

Could you share which sensor-assay potency score (higher = more potent) value was measured for `TTTAAATAGAAGAGTATACTAA` ?
-0.591

----------
target: XAGE3; test: pooled miR-30 sensor sort-seq; sequence = guide strand; details: shRNA
Please enter y where sensor-assay potency score (higher = more potent) is greater than or equal to -0.9, and n where it is lower.

Could you verify whether the entry `TTCCTCTTGCTGAGGCTCCTCA` shows sensor-assay potency score (higher = more potent) of no less than -0.9?
n

Evaluate `TTCTTCTCTCTCCTGACCAGGT` : sensor-assay potency score (higher = more potent) at minimum -0.9?
y

API: above_or_equal(metric=sensor-assay potency score (higher = more potent), cutoff=-0.9) for item `TCTCTCTCCTGACCAGGTGCAG`
n

----------
target: PKLR; experiment: pooled miR-30 sensor sort-seq; sequence = guide strand; conditions: shRNA
VALUE KIND: sensor-assay potency score (higher = more potent)

Need sensor-assay potency score (higher = more potent), item `ATGGACTTTGCTAAGTCTCTTT`
-0.987

Any idea what sensor-assay potency score (higher = more potent) was measured for `TTGCTGATGATCTTGATGCCGT` ?
-0.495

Entry under review: `AATCATCATCTTCTGAGCCAGG` . Reported sensor-assay potency score (higher = more potent)?
-0.988

----------
target: HNRNPL; assay: pooled miR-30 sensor sort-seq; sequence = guide strand; conditions: shRNA
Give measured sensor-assay potency score (higher = more potent) for each item. Keep answers brief.

Look up sensor-assay potency score (higher = more potent): `TACAGCGTAGCCATCAGCCATC`
-1.38

Bench note: what sensor-assay potency score (higher = more potent) did `TAGAGTAGTTGACAAAAGCTGG` show?
-0.329

Requested read-out: sensor-assay potency score (higher = more potent). Entry: `TTAAGGTTAAGTAAGCCTCTAC`
0.152

----------
biological target: KCNH5; assay: pooled miR-30 sensor sort-seq; sequence = guide strand; details: shRNA
Can you tell me sensor-assay potency score (higher = more potent) for the items I'm about to list?
# print the numeric value only

Requested read-out: sensor-assay potency score (higher = more potent). Entry: `TTTTCTTGTACAGAAGAACTTC`
0.0958

I'd like to know its sensor-assay potency score (higher = more potent). The sequence in question is `TTCCACTGTCACAAGAATCTGT`
0.6

I'd like to know its sensor-assay potency score (higher = more potent). The sequence in question is `TAAACAAGACAGCAGATCGATC`
-1.19

Record request: sensor-assay potency score (higher = more potent) value, item `TTTGAACAACGTAATATCCTTG`
-0.17

----------
target: SRPK1; assay: pooled miR-30 sensor sort-seq; sequence = guide strand; conditions: shRNA
VALUE KIND: sensor-assay potency score (higher = more potent)
Give a plain numeric answer without units written out.

What sensor-assay potency score (higher = more potent) appears in the records for this sequence with SRPK1? `TTATAGGTGTACAAGAGTCTGT`
-0.536

API: value(readout= sensor-assay potency score (higher = more potent), system= SRPK1, query= `TATGTGTTCCATTAACTCCTGA` )
-0.508

Reported sensor-assay potency score (higher = more potent) for SRPK1, given `TAGTTGAACAACCATTTCTCTA` ?
-1.08

Notebook: pull reported sensor-assay potency score (higher = more potent) for SRPK1, entry `TACAATAATCATTAGGATCTTC`
-0.347

Give the reported sensor-assay potency score (higher = more potent) for `TTCCATAAGCGTTTGATCCTGG` (system: SRPK1).
0.385

----------
target: TSC22D2; test: pooled miR-30 sensor sort-seq; sequence = guide strand; conditions: shRNA
VALUE KIND: sensor-assay potency score (higher = more potent)
Form field (numeric): enter value without unit.

Lab request: please report sensor-assay potency score (higher = more potent) under test system TSC22D2 for `TAAAACTTCCACTTCTTCTCTT`
0.683

Form field - read-out: sensor-assay potency score (higher = more potent); system: TSC22D2; submitted item: `TTAACAGTGCATTTTCTCGTTC`
-0.691

Can you look up sensor-assay potency score (higher = more potent) on TSC22D2 for `TAGTATTCCATACACGTCCATC` ?
-1.07

Request body: readout sensor-assay potency score (higher = more potent), system TSC22D2, query `TAGTATCGTCGACTTGCCCGAC` . Return the value.
-0.774

Form field - read-out: sensor-assay potency score (higher = more potent); system: TSC22D2; submitted item: `AAAACTTCCACTTCTTCTCTTA`
0.265

----------
biological target: PKIG; assay: pooled miR-30 sensor sort-seq; sequence = guide strand; settings: shRNA
Field: sensor-assay potency score (higher = more potent). Provide a value for each of the sequences that follow.
Returns: the value as a bare number; no unit string appended.

GET /values?readout=sensor-assay potency score (higher = more potent)&item= `TTCCTCACGCTCACAGCCTCTG`
-0.203

Quick one: sensor-assay potency score (higher = more potent) of `TAGGTGTCACTTATCCTGGTGG` ?
-0.436

Name the recorded sensor-assay potency score (higher = more potent) for `TCACAGCCTCTGAGTCTCCCTG` .
-1.09

----------
molecular target: CDK9; assay: pooled miR-30 sensor sort-seq; sequence = guide strand; conditions: shRNA
VALUE KIND: sensor-assay potency score (higher = more potent)
Form field (numeric): enter value without unit.

Field request: sensor-assay potency score (higher = more potent) | item: `TGAAGGATCTTGATCTCCCGCA`
-0.0916

Reported sensor-assay potency score (higher = more potent) for `TATACTACCCTTGCAGCGGTTA` : what is it?
-0.622

Request the reported sensor-assay potency score (higher = more potent) associated with `TCAAGTTGACCACATTCTCGTG`
-0.846

Item under review: `TTGACCACATTCTCGTGTTTTA` . Reported sensor-assay potency score (higher = more potent)?
-0.499

----------
biological target: NUDT8; test: pooled miR-30 sensor sort-seq; sequence = guide strand; conditions: shRNA
VALUE KIND: sensor-assay potency score (higher = more potent)
Lab note: jot the number down without any unit.

For NUDT8, provide sensor-assay potency score (higher = more potent) of `TTGTGCCTCCCGGTCAGGCGGC` please.
-1.45

Enter reported sensor-assay potency score (higher = more potent) observed with NUDT8 for `TACAGCAGCGCCGGCACCCCAC`
-1.1

Param readout= sensor-assay potency score (higher = more potent); system= NUDT8; entry= `TGGGAAACTGACGTCGCCCTTG` ; returns value.
-0.952

What value of sensor-assay potency score (higher = more potent) on NUDT8 does `TTTGCGGATCATACACAGGCCG` have?
-0.907

Hello, I am looking for reported sensor-assay potency score (higher = more potent) with NUDT8 for `TTGGTCAGCCGGGTCGCACTTG` . Could you help?
-1.16

Quick check: sensor-assay potency score (higher = more potent) on NUDT8, item `TCAGCCGGGTCGCACTTGCCGC` ?
-1.59

----------
molecular target: SRC; test: pooled miR-30 sensor sort-seq; sequence = guide strand; conditions: shRNA
Assign sensor-assay potency score (higher = more potent) to each entry below.
Enter a number only.

For `TGTGTTGTTGACAATCTGGAGC` , what is its reported sensor-assay potency score (higher = more potent)?
-0.666

Query (sequence): `TCGTGGTCTCACTTTCTCGCAC` ; field requested: sensor-assay potency score (higher = more potent)
-0.731

Record request: sensor-assay potency score (higher = more potent) value, item `TAGACTCATAGTCATAGAGGGC`
-1.02

Give the measured sensor-assay potency score (higher = more potent) of `TGTCTGTCCTGTGCTGAGCGAG` .
-1.15

----------
Exercise: for every item that follows, state its recorded sensor-assay potency score (higher = more potent).
target: DUSP3; assay: pooled miR-30 sensor sort-seq; sequence = guide strand; conditions: shRNA
Lab note: jot down the number only; don't add units.

I'd like to know its sensor-assay potency score (higher = more potent). The sequence in question is `TTGGGGAGCGGCTATAACCTTC`
-1.39

Bench note: what sensor-assay potency score (higher = more potent) did `TAGAAGTTGGCATTGGTGTTGA` show?
0.772

Look up sensor-assay potency score (higher = more potent): `ATTCTTTTGAGCCAAAGCCTGG`
-1.5

// lookup sensor-assay potency score (higher = more potent) for `TTCTGCCGCATCATGAGGTAGG`
-0.351

For `TGTGATGCCGGAGTCCTTGTAG` , what is its reported sensor-assay potency score (higher = more potent)?
0.0865

Entry under review: `TATGTGATGCCGGAGTCCTTGT` . Reported sensor-assay potency score (higher = more potent)?
-1.17

Reported sensor-assay potency score (higher = more potent) for `ATTGGTGTTGACGTGCATGAAG` : what is it?
-1.24

Data request, read-out sensor-assay potency score (higher = more potent), for `TTGACGTCCATCTTCTGCCGCA`
-0.0981
